Target: T1, 4H754-bA
T1 chain: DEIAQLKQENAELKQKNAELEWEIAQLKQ
Assay: two-hybrid library CCNG1;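 further: natural log of median RNA to DNA barcode read ratio; higher means stronger binding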
ASSAY ENDPOINT: interaction score

>>> quantitative_readout("DEIAQLKQENAELKQEIAELKWKIAQLEQ [4H717-bA]")
-0.36
>>> quantitative_readout("DEIAQLKQEIAELEQKNAELKWKNAQLEQ [4H575-bA]")
-0.786
>>> quantitative_readout("DKIAQLKQEIAELKQKNAELEWEIAQLEQ [4H2673-bA]")
-0.889

(1) DEIAQLEQKIAELKQEIAELKWENAQLEQ [4H331-bA]
(2) DKNAQLKQKNAELKQKIAELKWEIAQLEQ [4H4073-bA]
input: // task: argmin of interaction score over [ 1 , 2 ] Could you answer with the label of the item you picked?
output: 2
